Below: a set of entries, each annotated with reported fold repression.
Biological target: T1, ECF20_992
T1 chain: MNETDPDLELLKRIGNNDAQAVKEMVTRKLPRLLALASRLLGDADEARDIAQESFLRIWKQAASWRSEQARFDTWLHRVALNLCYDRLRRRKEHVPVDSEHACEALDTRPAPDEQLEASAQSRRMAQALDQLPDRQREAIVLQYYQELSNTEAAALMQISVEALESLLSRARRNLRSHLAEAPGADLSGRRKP
readout.name: fold repression

binder="AS20_992 (protein) MTPERFVHLADAYGADLQRWPSAERAAAQALLDCGDAQAVAALRQAHWLDSQLDRYQVPAPSPALAQRIIAAAQQPGAPFWSRYAGWLASLGWVGVGLTGVAAGMLAVALSLPLSTSAEALPSVFDQSDAEFVLSINAEEAEQ" test_result=169
binder="AS01_3473 (protein) MSNYDNAELLALWLEGKLTPKQRDEFEQRCIQDSQFAEQVDAAAMVKIGADDYSSSEVPQWNKAATFEPQQANNSGSWLSGVSLVTSALAIVLVLTGTQVTTSEGELRIRFGSGQSEQALVKLVDSKLDAFKQNQQDAFTLYAQTLQQQQSESASQLTNYLLSSSRKERREDFAELIKFVNQQRSDDQLFYARQLNQLQQDVYHDATGVALESIQQ" test_result=2.52
binder="AS30_35 (protein) MDKRLQQLREEYKNVQIPKELDIIVEKALQQEPKKKRIVMWPTSAAIAAAILFTALVNINPDAAQAMSKIPVIGKIVKAITFIEIKEEKDQSSIDVKTPALSGLSNKELENSINEKYLKESQQLYKEFIQSTSKNKKGHLSIYSDYETVTDTPDLLSIRRNIETTQASSYTQSRYITIDKKNDILLTLKSLFKDERYIKVISQNIKEQMKQQMKEDPNKIYWLTDEDAEPFKTILPDQTFYITEDHKLVISFDEYEVAPGYMGVTEFTIPTGVISNLLVGERYIR" test_result=2.34
binder="AS15_436 (protein) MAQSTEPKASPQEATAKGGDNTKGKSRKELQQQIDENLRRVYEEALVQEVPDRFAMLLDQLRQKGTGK" test_result=1.95
binder="AS16_973 (protein) MKTDDLIALLAAGEGPVPRHAVGRRMAVAALGGLTAALLLTITLYGVRSDITEVAQTPLFWGKVAFPTSLALIGLWLTSRLARPGGKGAAGWKMLGLPLLLVWCGAAVSIAGAPVDARADLLFGRTWRTCALNIALLSVPAFVTVFWALKGLAPTRLRLAGAAGGLLAGSSATVAYCLHCPEMGVPFWGVWYVLGMLVPTVLGAWWGPRMLRW" test_result=0.636
binder="AS04_1609 (protein) MNRTTEQRNAEVMKTIGLLDQMPRVEVDHLFRVRLMQRIEAMEVKKTSWSALPGGAFNPRLAFMALLLMLNIASALMLFMHGTPQATGSSGAIAESLTEDYGGPALSYYDDQTTIDR" test_result=7.41

These measurements were taken from paper PMC3817407.
